Reference source: patent US20040127446A1

- Test system: minus strand HCV RNA
- Assay type: biochemical, Hepatitis C virus
- ASSAY CONDITIONS: minus strand (−) HCV site, 50 mM Tris-Cl, pH 8.0, 40 mM Mg2+ at 37°, trace substrate, enzymatic nucleic acid concentration of 500 nM or greater
[invAb] = 3' inverted deoxyabasic cap; [I] = hypoxanthine (inosine); m = 2'-O-methyl; r = 2'-OH (RNA)
RECORDED METRIC: % Substrate Cleaved in 3 hours (%)
Give just the numeric value; % need not be written.

| SUBSTANCE | % Substrate Cleaved in 3 hours (%) |
| --- | --- |
| 22782 (GGAUGAGCUGAUGAGGCCGUUAGGCCGAANAGAGGU; 2'-O-methyl at 1, 2, 3, 4, 5, 6, 7, 15, 16, 17, 18, 19, 20, 21, 22, 23, 24, 25, 26, 31, 32, 33, 34, 35, 36, [I] at 30, [invAb] at 3' end, other sugars and backbone not given here) [compound 22782] | 78.83 |
| 22726 (AGAAGAAUGAUGGCAUGCACUAUGCGCGACGAGGA; sugars from the 5' end mmmmmmmmrrrmmmmmrmmmmmmmmmrmmmmmmmm, [invAb] at 3' end, backbone not given here) [compound 22726] | 82.14 |

Task: Provide value of % Substrate Cleaved in 3 hours for this record tested with minus strand HCV RNA: 22949 (GCUGGAACUGAUGAGGCCGUUAGGCCGAAACACUGA; 2'-O-methyl at 1, 2, 3, 4, 5, 6, 7, 15, 16, 17, 18, 19, 20, 21, 22, 23, 24, 25, 26, 31, 32, 33, 34, 35, 36, [invAb] at 3' end, other sugars and backbone not given here) [compound 22949]
Result: 89.16
